Experiment: chemical genetic growth profiling, strain panel (AID 1159580);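 note: tested at 20 µM; growth read once vehicle control cultures reached saturation at 30 °C; 1 = growth at the plate median or of vehicle wells; lower values mean less growth of the strain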
Details: S. cerevisiae deletion strains, growth OD, locus YOR106W, strain vam3
In all, about 5,500 compounds went through this assay and about 2,000 (36%) were called active. Inconclusive results (about 18%) are left out. Cut-off read from the data, not from the text of the source: active = normalized growth mostly below about 0.91 (no sharp cut-off); inconclusive = no clear call, values can overlap the other calls; inactive = mostly above about 0.92. Some of the results follow.
Outcome (select one): active, inactive

Observe how each entry below is paired with its result.
molecule | category
CNC1(C)C2CCC(C2)C1(C)C (configuration not stated) | inactive
CC(C)(CO)C(O)C(=O)NCCCO (configuration not stated) | inactive

IN: Hello, I am checking results. What call was entered for CCC(C(=O)O)c1ccccc1 (configuration not stated) ?
OUT: inactive

---

Assay: chemical genetic growth profiling, strain panel (AID 1159580);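 note: tested at 20 µM; growth read once vehicle control cultures reached saturation at 30 °C; 1 = growth at the plate median or of vehicle wells; lower values mean less growth of the strain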
Conditions: S. cerevisiae deletion strains, growth OD, locus YEL037C, strain rad23
In all, about 5,500 compounds went through this assay and about 2,000 (36%) were called active. Roughly 18% stayed inconclusive and do not appear here. Cut-off read from the data, not from the text of the source: active = normalized growth mostly below about 0.91 (no sharp cut-off); inconclusive = no clear call, values can overlap the other calls; inactive = mostly above about 0.92. The list shows a part of the results.
Outcome (select one): 1 = active, 0 = inactive

compound | category
O=C(Cc1ccccc1)NO | 0
C[N+](C)(C)CCOP(=O)([O-])OP(=O)(O)OC[C@H]1OC(n2ccc(N)nc2=O)[C@H](O)[C@@H]1O (some centres undefined) | 0
CN=C(NC#N)NCCSCc1nc[nH]c1C | 0
CC1(C)S[C@@H]2[C@H](NC(=O)[C@H](NC(=O)N3CCNC3=O)c3ccccc3)C(=O)N2C1C(=O)O (some centres undefined) | 0
CC(=O)O[C@]1(C(C)=O)CCC2C3C=C(Cl)C4=CC(=O)CC[C@]4(C)C3CC[C@@]21C (some centres undefined) | 0
OCc1ccccc1O[C@@H]1O[C@H](CO)[C@@H](O)[C@H](O)[C@H]1O | 0
CC(C)N(C(=O)CCl)c1ccccc1 | 0
COc1cc(O)c(C(=O)c2ccccc2)cc1O | 0

IN: Hello, I am checking results. What call was entered for `c1ccc(CC2=NCCN2)cc1` ?
OUT: 0

IN: Hello, I am checking results. What call was entered for COc1cc2c(cc1OC)C(=O)C(CC1CCN(Cc3ccccc3)CC1)C2 (centres undefined) ?
OUT: 0

IN: Hello, I am checking results. What call was entered for CC1(C)C2CC[C@]3(C)C(C(=O)C=C4[C@H]5C[C@@](C)(C(=O)O)CC[C@]5(C)CC[C@]43C)[C@@]2(C)CC[C@@H]1O (some centres undefined) ?
OUT: 0

IN: Hello, I am checking results. What call was entered for `Cc1cc(OC(=O)N2CCCCC2)c(C(C)C)cc1[N+](C)(C)C` ?
OUT: 0

Source listed as PubChem BioAssay AID1159580.
